Counter-ions that a name gives are not always drawn.
Task for the reader: assign each of the following compounds its reported IC50.

Enter reported IC50 observed with ErbB2 (Homo sapiens, UniProt P04626) for CC(C)c1nc(-c2cccc(NS(=O)(=O)c3ccco3)c2)c(-c2ccnc(Nc3ccc(N4CCOCC4)nc3)n2)s1
Sequence (P04626 23-1255): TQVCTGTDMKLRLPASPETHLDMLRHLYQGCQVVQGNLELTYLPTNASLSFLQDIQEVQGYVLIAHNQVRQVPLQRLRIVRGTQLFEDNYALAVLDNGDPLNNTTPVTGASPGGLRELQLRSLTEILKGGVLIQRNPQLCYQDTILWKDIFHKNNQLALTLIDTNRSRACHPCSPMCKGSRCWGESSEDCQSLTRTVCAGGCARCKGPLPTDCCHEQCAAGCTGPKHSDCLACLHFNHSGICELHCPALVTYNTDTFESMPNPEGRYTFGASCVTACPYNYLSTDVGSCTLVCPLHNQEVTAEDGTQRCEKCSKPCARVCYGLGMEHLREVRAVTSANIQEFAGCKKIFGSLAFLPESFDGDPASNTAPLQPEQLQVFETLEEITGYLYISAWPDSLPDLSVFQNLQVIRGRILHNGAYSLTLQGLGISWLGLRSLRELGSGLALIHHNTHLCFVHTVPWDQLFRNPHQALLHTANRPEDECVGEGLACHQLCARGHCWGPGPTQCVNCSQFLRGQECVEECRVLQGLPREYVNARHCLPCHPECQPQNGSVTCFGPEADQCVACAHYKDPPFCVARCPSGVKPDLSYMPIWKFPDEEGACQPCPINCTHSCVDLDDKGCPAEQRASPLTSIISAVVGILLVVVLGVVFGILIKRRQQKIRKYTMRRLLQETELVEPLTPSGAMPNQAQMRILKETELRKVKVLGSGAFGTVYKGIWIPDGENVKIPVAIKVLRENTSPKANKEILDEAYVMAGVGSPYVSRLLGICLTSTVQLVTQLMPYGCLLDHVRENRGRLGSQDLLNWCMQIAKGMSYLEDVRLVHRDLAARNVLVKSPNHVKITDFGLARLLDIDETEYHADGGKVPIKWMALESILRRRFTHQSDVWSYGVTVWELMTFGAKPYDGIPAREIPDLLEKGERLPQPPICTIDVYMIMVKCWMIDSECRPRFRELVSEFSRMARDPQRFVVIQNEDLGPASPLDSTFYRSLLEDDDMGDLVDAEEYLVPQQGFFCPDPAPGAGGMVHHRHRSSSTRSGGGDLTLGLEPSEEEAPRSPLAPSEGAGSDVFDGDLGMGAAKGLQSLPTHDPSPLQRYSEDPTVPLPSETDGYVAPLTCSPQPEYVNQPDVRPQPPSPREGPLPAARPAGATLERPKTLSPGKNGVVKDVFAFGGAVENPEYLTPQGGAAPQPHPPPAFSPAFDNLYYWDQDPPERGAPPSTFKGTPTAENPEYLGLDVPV
> 1 µM

Enter reported IC50 observed with ErbB2 (Homo sapiens, UniProt P04626) for CC(C)c1nc(-c2cccc(NS(=O)(=O)c3cccs3)c2)c(-c2ccnc(Nc3ccc(N4CCOCC4)nc3)n2)s1
0.1 to 1 µM

Enter reported IC50 observed with ErbB2 (Homo sapiens, UniProt P04626) for O=S(=O)(Nc1cccc(-c2nc(-c3ccc(F)c(Cl)c3)sc2-c2ccnc(Nc3ccc(N4CCOCC4)nc3)n2)c1F)c1c(F)cccc1F
> 1 µM

Enter reported IC50 observed with ErbB2 (Homo sapiens, UniProt P04626) for CC(C)(C)c1nc(-c2ccc(F)c(NS(=O)(=O)c3c(F)cccc3F)c2)c(-c2ccnc(Nc3ccc(N4CCOCC4)nc3)n2)s1 [Example 28, hydrochloride]
0.1 to 1 µM

Enter reported IC50 observed with ErbB2 (Homo sapiens, UniProt P04626) for COc1cc(N2CCN(CCS(C)(=O)=O)CC2)c(C)cc1Nc1nccc(-c2oc(N3CCCC3)nc2-c2cccc(NS(=O)(=O)c3c(F)cccc3F)c2)n1
0.1 to 1 µM

Enter reported IC50 observed with ErbB2 (Homo sapiens, UniProt P04626) for CC(C)c1nc(-c2cccc(NS(=O)(=O)c3c(F)cccc3F)c2)c(-c2ccnc(Nc3cnc(N4CCOCC4)cc3O)n2)s1
> 1 µM

Enter reported IC50 observed with ErbB2 (Homo sapiens, UniProt P04626) for O=S1(=O)Cc2ccc(Nc3nccc(-c4sc(N5CCOCC5)nc4-c4cccc(NS(=O)(=O)c5c(F)cccc5F)c4F)n3)cc2C1
0.1 to 1 µM

Enter reported IC50 observed with ErbB2 (Homo sapiens, UniProt P04626) for COc1ccc(S(=O)(=O)Nc2cccc(-c3nc(C(C)C)sc3-c3ccnc(Nc4ccc(N5CCOCC5)nc4)n3)c2)cc1OC
> 1 µM

Enter reported IC50 observed with ErbB2 (Homo sapiens, UniProt P04626) for CCc1nc(-c2cccc(NS(=O)(=O)c3ccccc3)c2)c(-c2ccnc(Nc3cc(OC)c(OC)c(OC)c3)n2)s1
> 1 µM

Enter reported IC50 observed with ErbB2 (Homo sapiens, UniProt P04626) for COc1cc2c(cc1Nc1nccc(-c3sc(C(C)C)nc3-c3cccc(NS(=O)(=O)c4c(F)cccc4F)c3)n1)N(C(=O)CN(C)C)CC2
0.1 to 1 µM

Enter reported IC50 observed with ErbB2 (Homo sapiens, UniProt P04626) for CC(C)c1nc(-c2ccc(F)c(NS(=O)(=O)c3c(F)cccc3F)c2)c(-c2ccnc(Nc3ccc(N4CCOCC4)nc3)n2)s1
0.1 to 1 µM

Enter reported IC50 observed with ErbB2 (Homo sapiens, UniProt P04626) for CC(=O)N1CCN(c2ccc(Nc3nccc(-c4oc(C(C)C)nc4-c4cccc(NS(=O)(=O)c5c(F)cccc5F)c4)n3)cn2)CC1
> 1 µM

Enter reported IC50 observed with ErbB2 (Homo sapiens, UniProt P04626) for Cc1cc(Nc2nccc(-c3sc(C(C)(C)C)nc3-c3cccc(NS(=O)(=O)c4c(F)cccc4F)c3F)n2)ccn1
0.1 to 1 µM

Enter reported IC50 observed with ErbB2 (Homo sapiens, UniProt P04626) for CCNc1nc(-c2cccc(NS(=O)(=O)c3ccccc3)c2)c(-c2ccnc(Nc3ccc(OCCN4CCCC4)c(F)c3)n2)s1 [Example 65]
< 0.1 µM

Enter reported IC50 observed with ErbB2 (Homo sapiens, UniProt P04626) for CC(C)c1nc(-c2ccc(F)c(NS(=O)(=O)c3c(F)cccc3F)c2)c(-c2ccnc(Nc3cccc(CCS(N)(=O)=O)c3)n2)s1
< 0.1 µM

Enter reported IC50 observed with ErbB2 (Homo sapiens, UniProt P04626) for CC(C)c1nc(-c2cccc(NS(=O)(=O)c3c(F)cccc3F)c2)c(-c2ccnc(Nc3ccc(N4CCN(CCS(C)(=O)=O)CC4)c(F)c3)n2)s1 [Example 16, hydrochloride]
0.1 to 1 µM

Enter reported IC50 observed with ErbB2 (Homo sapiens, UniProt P04626) for CC(C)c1nc(-c2cccc(NS(=O)(=O)c3c(F)cccc3F)c2)c(-c2ccnc(Nc3cc(F)c(N4CCN(CCS(C)(=O)=O)CC4)cc3F)n2)s1
0.1 to 1 µM

Enter reported IC50 observed with ErbB2 (Homo sapiens, UniProt P04626) for CC(=O)N1CCN(c2ccc(Nc3nccc(-c4sc(C(C)C)nc4-c4cccc(NS(=O)(=O)C5CCCCC5)c4)n3)cn2)CC1
> 1 µM

----------
// pIC50 collected for ErbB2 (Homo sapiens)
pIC50: −log10 of the molar value.

Consider the compound shown here: CC(C)c1nc(-c2cccc(NS(=O)(=O)c3c(F)cccc3F)c2F)c(-c2ccnc(Nc3ccc(N4CCN(CCF)CC4)c(F)c3)n2)s1 What is its recorded pIC50?
6.00 to 7.00

Consider the compound shown here: CC(C)c1nc(-c2cccc(NS(=O)(=O)c3ccccc3)c2)c(-c2ccnc(Nc3ccc(N4CCN(CCS(C)(=O)=O)CC4)c(F)c3F)n2)s1 What is its recorded pIC50?
< 6.00

Consider the compound shown here: CCc1nc(-c2ccc(F)c(NS(=O)(=O)c3ccccc3)c2)c(-c2ccnc(Nc3ccc(N4CCN(CCS(C)(=O)=O)CC4)c(F)c3)n2)s1 What is its recorded pIC50?
6.00 to 7.00

Consider the compound shown here: Cc1ccc(-c2nc(C(C)C)sc2-c2ccnc(Nc3ccc(N4CCOCC4)nc3)n2)cc1NS(=O)(=O)c1c(F)cccc1F What is its recorded pIC50?
6.00 to 7.00

Consider the compound shown here: CC(C)c1nc(-c2cccc(NS(=O)(=O)c3ccccc3)c2)c(-c2ccnc(Nc3ccc(F)c(N4CCN(CCS(C)(=O)=O)CC4)c3)n2)s1 What is its recorded pIC50?
6.00 to 7.00

Consider the compound shown here: COc1ccc(S(C)(=O)=O)cc1Nc1nccc(-c2sc(C(C)C)nc2-c2cccc(NS(=O)(=O)c3c(F)cccc3F)c2F)n1 What is its recorded pIC50?
6.00 to 7.00

Consider the compound shown here: COc1cc(N2CCC(N3CCN(CCS(C)(=O)=O)CC3)CC2)ccc1Nc1nccc(-c2sc(C(C)C)nc2-c2cccc(NS(=O)(=O)c3c(F)cccc3F)c2)n1 What is its recorded pIC50?
> 7.00

Consider the compound shown here: CS(=O)(=O)N1CCN(c2ccc(Nc3nccc(-c4oc(N5CCCC5)nc4-c4ccc(F)c(NS(=O)(=O)c5ccccc5F)c4)n3)cn2)CC1 What is its recorded pIC50?
< 6.00

Consider the compound shown here: CC(=O)N1CCc2cc(Nc3nccc(-c4sc(C(C)C)nc4-c4cccc(NS(=O)(=O)c5ccccc5)c4)n3)ccc21 What is its recorded pIC50?
> 7.00

----------
Tested on: SK-MEL-3 tumor cells
test: Cell growth inhibition assay (CellTiter-Glo), SK-MEL-3
Format: cell-based, Human
condition notes: Homo sapiens, SK-MEL3
Counter-ions that a name gives are not always drawn.
Task for the reader: assign each of the following compounds its reported IC50.

Consider the compound shown here: CC(C)c1nc(-c2ccc(F)c(NS(=O)(=O)c3ccccc3F)c2)c(-c2ccnc(Nc3ccc(N4CCN(CCS(C)(=O)=O)CC4)c(F)c3)n2)s1 [Example 22, hydrochloride] What is its recorded IC50?
100 to 1000 nM

Consider the compound shown here: Nc1nc(-c2cccc(NS(=O)(=O)c3c(F)cccc3F)c2)c(-c2ccnc(Nc3ccc(N4CCOCC4)nc3)n2)s1 [Example 62] What is its recorded IC50?
< 100 nM

Consider the compound shown here: CC(C)c1nc(-c2cccc(NS(=O)(=O)c3ccccc3)c2)c(-c2ccnc(Nc3ccc(N4CCOCC4)cn3)n2)s1 [Example 92] What is its recorded IC50?
100 to 1000 nM

Consider the compound shown here: COc1ccc(S(C)(=O)=O)cc1Nc1nccc(-c2sc(N3CCOCC3)nc2-c2cccc(NS(=O)(=O)c3c(F)cccc3F)c2F)n1 [Example 157] What is its recorded IC50?
< 100 nM

Consider the compound shown here: CC(=O)N1CCc2cc(Nc3nccc(-c4sc(C(C)C)nc4-c4cccc(NS(=O)(=O)c5ccccc5)c4)n3)ccc21 [Example 71] What is its recorded IC50?
< 100 nM

Consider the compound shown here: CC(=O)N1CCN(c2ccc(Nc3nccc(-c4sc(C(C)C)nc4-c4cccc(NS(=O)(=O)c5cn(C)cn5)c4)n3)cn2)CC1 [Example 36] What is its recorded IC50?
100 to 1000 nM

Consider the compound shown here: CC(C)c1nc(-c2cccc(NS(=O)(=O)c3c(F)cccc3F)c2)c(-c2ccnc(Nc3ccc(N4CCN5CCOC[C@H]5C4)nc3)n2)s1 [Example 15] What is its recorded IC50?
< 100 nM

Consider the compound shown here: O=S(=O)(Nc1cc(-c2nc(N3CCCC3)sc2-c2ccnc(Nc3ccc(N4CCOCC4)nc3)n2)ccc1F)c1c(F)cccc1F [Example 26] What is its recorded IC50?
100 to 1000 nM
